The reported numbers originate from paper PMC8201479.

Biological target: T1, LIN28A (16-187), untagged (human, UniProt Q9H9Z2 16-187)
T1 sequence: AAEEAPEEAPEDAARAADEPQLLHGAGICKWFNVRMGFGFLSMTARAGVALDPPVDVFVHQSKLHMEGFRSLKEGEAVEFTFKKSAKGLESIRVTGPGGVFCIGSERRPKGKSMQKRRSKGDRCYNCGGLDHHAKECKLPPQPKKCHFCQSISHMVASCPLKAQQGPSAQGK
Assay: competition (fluorescence polarization); competes with 2 nM FAM-preE-let-7f-1; FP: 20 mM Tris pH 7, 100 mM NaCl, 5 mM MgCl2, 2 mM GSH, 0.1% NP-40 (200 nM LIN28A, 2 nM RNA in IC50 assays); EMSA: 50 mM Tris pH 7.5, 100 mM NaCl, 10 mM beta-ME, 50 uM ZnCl2, 2% DMSO, 0.01% Tween 20, 12% glycerol, 2 h, room temperature
Conditions: protein: recombinant; tags: none (His-tag cleaved by TEV); stem loop
measurement_type: IC50 (nM)
Value expressed in nM; do not type the unit.

For GGGGUAGUGAUUUUACCCUGUUUAGGAGAU (structured_RNA) [preE-let-7f-1, unlabeled] , what is its reported IC50?
55
